- assay notes: folding enthalpy; higher = less favourable; fluorescence melt of hairpins on a sequencing array, two-state fit
- settings: sodium 0.088 M
attribute measured: folding enthalpy (kcal/mol)
Give a bare numeral; the unit kcal/mol is implied.

sequence record	scale unit	folding enthalpy
GCCGAGCGAAAGCTGGGC (((.(((....))).)))	kcal/mol	-30
GGCTTTCGAAAGAAGGCC (((.(((....))).)))	kcal/mol	-40.9
GATCACCGTCGTGATC ((((((....))))))	kcal/mol	-39

Turning now to a further record.
Query: Output folding enthalpy of GATCATAATATGATC ((((((...))))))
Response: -30.7

* * *

- assay notes: melting temperature; fluorescence melt of hairpins on a sequencing array, two-state fit, raised by 9.35 °C to match UV melts
- settings: sodium 0.088 M
attribute measured: Tm
Answer as a quantity: numeral, then unit.

Consider the worked cases shown below.
sequence record	endpoint value
GATCCAGTGGTGGATC ((((((....))))))	50.4 °C
GATCTGATACAGATC ((((((...))))))	48.7 °C

Turning now to a further record.
Query: Output Tm of GGACTGGGAAACCAGCCC ((.((((....)))).))
Response: 50.4 °C

* * *

- assay notes: folding enthalpy; higher = less favourable; fluorescence melt of hairpins on a sequencing array, two-state fit
- settings: sodium 0.088 M
Label scheme for folding enthalpy: lower than -20 kcal/mol is 0.0, -20 kcal/mol and above is 1.0.

Study these solved cases before continuing.
sequence record	qualitative label
GAGCAAGGAAACTTGCTC (((((((....)))))))	0.0
GATCCGTGACCGGATC ((((((....))))))	0.0
GCTCGGCGAAAGCGGCGC ((.(.((....)).).))	1.0
GGATGTGGAAACATGTCC (((..((....))..)))	0.0
GTCTGTGGAAACACAGAC (((((((....)))))))	0.0

Query: Is folding enthalpy for GTCGATCGAAAGATGAC (((.(((....)))))) at or above -20 kcal/mol?
Response: 0.0

Query: Is folding enthalpy for GATCTCAAATGAGATC ((((((....)))))) at or above -20 kcal/mol?
Response: 0.0

* * *

- assay notes: folding enthalpy; higher = less favourable; fluorescence melt of hairpins on a sequencing array, two-state fit
- settings: sodium 0.088 M
attribute measured: folding enthalpy (kcal/mol)
Give a bare numeral; the unit kcal/mol is implied.

Consider the worked cases shown below.
sequence record	endpoint value
GGACTCGAAAGAGATTCC ((((((....)))..)))	-11.3
GGTAGCGGAAACGTTGCC ((.(.((....)).).))	-25.2
GATCCAGACTTGGATC ((((((....))))))	-35
GAGGAACCGAAAGGTCTC (((..(((....))))))	-15.4
GCTAGCGAAAGCTGAGC ((((((....))).)))	-28.5

Query: Output folding enthalpy of GCGAAAGGAAACTCTCGC ((((.((....)).))))
Response: -28.1

Query: Output folding enthalpy of GACTTGGGAAACCAGGTC (((.(((....))).)))
Response: -37

Query: Output folding enthalpy of GCTGACGAAAGTCCGAGC ((((((....)))..)))
Response: -17.6

Query: Output folding enthalpy of GACGGTGGAAACACCGCC (.(((((....))))).)
Response: -12.7

Query: Output folding enthalpy of GGTCGACGAAAGTCTACC (((.(((....))).)))
Response: -34.7

Query: Output folding enthalpy of GATCAGATGCCTGATC ((((((....))))))
Response: -23.8

* * *

- assay notes: folding enthalpy; higher = less favourable; fluorescence melt of hairpins on a sequencing array, two-state fit
- settings: sodium 0.088 M
Label scheme for folding enthalpy: lower than -20 kcal/mol is Not fulfilled, -20 kcal/mol and above is Fulfilled.

Study these solved cases before continuing.
sequence record	qualitative label
GCCGTACGAAAGTAGGC (((.(((....))))))	Not fulfilled
GTCATCTCGAAAGAGGAC (((..(((....))))))	Not fulfilled
GATCGTTGTAACGATC ((((((....))))))	Not fulfilled

Query: Is folding enthalpy for GGGCTCGAAAGAGCTCCC ((((((....)))..))) at or above -20 kcal/mol?
Response: Fulfilled

Query: Is folding enthalpy for GATACCGAAAGGTAGATC ((((((....)))..))) at or above -20 kcal/mol?
Response: Fulfilled

Query: Is folding enthalpy for GTCTAGACGAAAGTCGAC (((..(((....)))))) at or above -20 kcal/mol?
Response: Fulfilled

Query: Is folding enthalpy for GAGTCCGAAAGGAGCTC ((((((....))).))) at or above -20 kcal/mol?
Response: Not fulfilled

Query: Is folding enthalpy for GCGACGGGAAACCACCGC (((..((....))..))) at or above -20 kcal/mol?
Response: Not fulfilled

Query: Is folding enthalpy for GCAGAGCGAAAGCCCAGC ((.(.((....)).).)) at or above -20 kcal/mol?
Response: Fulfilled

* * *

- assay notes: melting temperature; fluorescence melt of hairpins on a sequencing array, two-state fit, raised by 9.35 °C to match UV melts
- settings: sodium 0.088 M
attribute measured: Tm (°C)
Give a bare numeral; the unit °C is implied.

Consider the worked cases shown below.
sequence record	attribute measured	endpoint value
GGTGCCGAAAGGCGTACC ((((((....)))..)))	Tm	48.5
GACGCCGAAAGGCGCGTC ((((((....)))..)))	Tm	49.6

Query: Output Tm of GGGATAGGAAACTACCCC (((.(((....))).)))
Response: 38.7

Query: Output Tm of GGAGTCCGAAAGGAGTCC (((.(((....))).)))
Response: 63.3

Query: Output Tm of GGGGGCGAAAGCCTGCCC ((((((....)))..)))
Response: 43.8

* * *

- assay notes: melting temperature; fluorescence melt of hairpins on a sequencing array, two-state fit, raised by 9.35 °C to match UV melts
- settings: sodium 0.088 M
Grouping key: Tm. Bins: low bracket = under 40 °C, middle bracket = from 40 °C up to 50 °C, high bracket = 50 °C and over

Study these solved cases before continuing.
sequence record	qualitative label
GATCTCGGTGAGATC ((((((...))))))	high bracket
GCGTCTGACGC ((((...))))	high bracket

Query: Which Tm category applies to GATAGGCCGAAAGGCATC (((..(((....)))))) here?
Response: low bracket

Query: Which Tm category applies to GATCGTCGTCACGATC ((((((....)))))) here?
Response: high bracket

* * *

Each entry below carries its reported folding enthalpy.
- assay notes: folding enthalpy; higher = less favourable; fluorescence melt of hairpins on a sequencing array, two-state fit
- settings: sodium 0.088 M
Give a bare numeral; the unit kcal/mol is implied.

Query: Output folding enthalpy of GGGCCGGGAAACCGGCTC (.(((((....))))).)
Response: -15.4

* * *

- assay notes: melting temperature; fluorescence melt of hairpins on a sequencing array, two-state fit, raised by 9.35 °C to match UV melts
- settings: sodium 0.088 M
Grouping key: Tm. Bins: bottom (below 40 °C), middle (40 °C to below 50 °C), top (50 °C or more)

sequence record	qualitative label
GGAAGGGGAAACCTTTCC ((((.((....)).))))	middle
GAAACCGAAAGGTGGTTC ((((((....)))..)))	bottom
GCATCGCGAAAGCCAAGC ((.(.((....)).).))	bottom
GGTGGTCGAAAGACGACC (((.(((....))).)))	top
GTACACGAAAGTGGGTAC ((((((....)))..)))	bottom
GCCGCGGGAAACCGCGAC (.(((((....))))).)	top

Query: Which Tm category applies to GTATCAGGAAACTGGTAC (((.(((....))).))) here?
Response: middle

Query: Which Tm category applies to GAGGACCGAAAGGTCTC (((.(((....)))))) here?
Response: middle

Query: Which Tm category applies to GCATTGGGAAACCAATAC (.(((((....))))).) here?
Response: bottom

* * *

Each entry below carries its reported folding enthalpy.
- assay notes: folding enthalpy; higher = less favourable; fluorescence melt of hairpins on a sequencing array, two-state fit
- settings: sodium 0.088 M
Answer as a quantity: numeral, then unit.

Consider the worked cases shown below.
sequence record	folding enthalpy
GGCAAAGGAAACTTTGTC (.(((((....))))).)	-29.1 kcal/mol
GATCAGGGATCTGATC ((((((....))))))	-29.1 kcal/mol

Turning now to a further record.
Query: Output folding enthalpy of GATCAATAAATTGATC ((((((....))))))
Response: -30.7 kcal/mol
